tested on: Mus musculus; assay: Percent increase in life span(ILS) was measured in mice at a dose of 250 mg/kg; assay type: functional
Rule: class 1 for ILS at 250 mg/kg not less than 60%, class 0 for anything less.

Sample answers from the record:
Prompt line: Is ILS at 250 mg/kg at least 60%? Consider NC[C@H]1OC(n2cc(F)c(=O)[nH]c2=O)[C@H](O)[C@@H]1O (stereo partly specified)
Response line: class 0

Prompt line: Is ILS at 250 mg/kg at least 60%? Consider O=c1[nH]c(=O)n(C2O[C@H](CF)[C@@H](O)[C@H]2O)cc1F (stereo partly specified)
Response line: class 0

Prompt line: Is ILS at 250 mg/kg at least 60%? Consider C[C@H]1O[C@@H](n2cc(F)c(=O)[nH]c2=O)[C@H](O)[C@@H]1O [DOXIFLURIDINE]
Response line: class 0

Prompt line: Is ILS at 250 mg/kg at least 60%? Consider O=c1[nH]c(=O)n(C2O[C@H](CCl)[C@@H](O)[C@H]2O)cc1F (stereo partly specified)
Response line: class 1

Prompt line: Is ILS at 250 mg/kg at least 60%? Consider CS(=O)(=O)OC[C@H]1OC(n2cc(F)c(=O)[nH]c2=O)[C@H](O)[C@@H]1O (stereo partly specified)
Response line: class 0

Could you now look at the following compound, please?
Prompt line: Is ILS at 250 mg/kg at least 60%? Consider O=c1[nH]c(=O)n(C2O[C@H](CBr)[C@@H](O)[C@H]2O)cc1F (stereo partly specified)
Response line: class 0

###

tested on: Mus musculus; experiment: Mortality rate was measured at a dose of 150 mg/kg; format: functional
result.type: Mean day of death (days)
Give the quantity in days, number only.

These solved cases illustrate the format of a correct answer.
Field Mean day of death (Mus musculus), entry O=c1[nH]c(=O)n(C2O[C@H](CCl)[C@@H](O)[C@H]2O)cc1F (stereo partly specified) : 16

Field Mean day of death (Mus musculus), entry C[C@H]1O[C@@H](n2cc(F)c(=O)[nH]c2=O)[C@H](O)[C@@H]1O [DOXIFLURIDINE] : 12

Field Mean day of death (Mus musculus), entry CS(=O)(=O)OC[C@H]1OC(n2cc(F)c(=O)[nH]c2=O)[C@H](O)[C@@H]1O (stereo partly specified) : 14.8

Field Mean day of death (Mus musculus), entry O=c1[nH]c(=O)n(C2O[C@H](CBr)[C@@H](O)[C@H]2O)cc1F (stereo partly specified) : 15

Field Mean day of death (Mus musculus), entry NC[C@H]1OC(n2cc(F)c(=O)[nH]c2=O)[C@H](O)[C@@H]1O (stereo partly specified) : 12.8

Note: attention shifts to another entry.
Field Mean day of death (Mus musculus), entry O=c1[nH]c(=O)n(C2O[C@H](CF)[C@@H](O)[C@H]2O)cc1F (stereo partly specified) : 13.8

###

tested on: Mus musculus; assay: Percent increase in life span(ILS) was measured in mice at a dose of 100 mg/kg; type: functional
Rule: Y for ILS at 100 mg/kg not less than 30%, N for anything less.

Prompt line: Is ILS at 100 mg/kg at least 30%? Consider NC[C@H]1OC(n2cc(F)c(=O)[nH]c2=O)[C@H](O)[C@@H]1O (stereo partly specified)
Response line: N

Next:
Prompt line: Is ILS at 100 mg/kg at least 30%? Consider CS(=O)(=O)OC[C@H]1OC(n2cc(F)c(=O)[nH]c2=O)[C@H](O)[C@@H]1O (stereo partly specified)
Response line: N

Prompt line: Is ILS at 100 mg/kg at least 30%? Consider O=c1[nH]c(=O)n(C2O[C@H](CCl)[C@@H](O)[C@H]2O)cc1F (stereo partly specified)
Response line: Y

Prompt line: Is ILS at 100 mg/kg at least 30%? Consider O=c1[nH]c(=O)n(C2O[C@H](CBr)[C@@H](O)[C@H]2O)cc1F (stereo partly specified)
Response line: Y

Prompt line: Is ILS at 100 mg/kg at least 30%? Consider O=c1[nH]c(=O)n(C2O[C@H](CF)[C@@H](O)[C@H]2O)cc1F (stereo partly specified)
Response line: Y

Prompt line: Is ILS at 100 mg/kg at least 30%? Consider C[C@H]1O[C@@H](n2cc(F)c(=O)[nH]c2=O)[C@H](O)[C@@H]1O
Response line: N
